Target: HDAC2 (Homo sapiens)
Construct: host or cells: SH-SY5Y cells
Sequence (Q92769 whole entry): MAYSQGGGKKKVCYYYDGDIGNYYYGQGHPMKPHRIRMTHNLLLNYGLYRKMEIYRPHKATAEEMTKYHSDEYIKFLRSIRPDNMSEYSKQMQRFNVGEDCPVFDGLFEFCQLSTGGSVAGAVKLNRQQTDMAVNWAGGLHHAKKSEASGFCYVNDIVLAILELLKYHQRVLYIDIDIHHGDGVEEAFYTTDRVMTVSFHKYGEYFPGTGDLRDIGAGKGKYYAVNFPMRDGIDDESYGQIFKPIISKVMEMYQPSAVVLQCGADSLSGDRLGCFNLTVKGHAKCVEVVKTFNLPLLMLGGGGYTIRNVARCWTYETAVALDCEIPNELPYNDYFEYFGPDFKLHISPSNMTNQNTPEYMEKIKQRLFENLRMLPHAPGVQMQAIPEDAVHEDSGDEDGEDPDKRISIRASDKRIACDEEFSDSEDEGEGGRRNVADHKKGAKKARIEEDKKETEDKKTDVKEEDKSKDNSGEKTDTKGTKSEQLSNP
Assay: HDAC2 Enzymatic Inhibition Assay in SH-SY5Y Cell Lysate with an Exogenous Substrate (HDAC-Glo 2)
Assay type: cell-based
Details: SH-SY5Y cells, Table 4, numeric
pIC50: −log10 of the molar value.

{"compound": "Nc1ccc(-c2ccc(F)cc2F)nc1NC(=O)N1CC(c2ncccn2)C1 [Comparator A, reference compound]", "measured-target": "HDAC2 (Homo sapiens)", "relation-operator": "<", "pIC50": 4.28}
{"compound": "Cc1cnc(C2CN(C(=O)Nc3nc(-c4ccc(F)cc4F)ccc3N)C2)cn1 [Comparator C, reference compound]", "measured-target": "HDAC2 (Homo sapiens)", "relation-operator": "=", "pIC50": 5.01}
{"compound": "Cc1ncc(C2CN(C(=O)Nc3nc(-c4ccc(F)cc4F)ccc3N)C2)cn1 [Comparator B, reference compound]", "measured-target": "HDAC2 (Homo sapiens)", "relation-operator": "=", "pIC50": 4.52}
{"compound": "Nc1ccc(-c2ccc(F)cc2F)nc1NC(=O)N1CC(Cc2ncccn2)C1", "measured-target": "HDAC2 (Homo sapiens)", "relation-operator": "=", "pIC50": 6.30}
{"compound": "Cc1ncc(CC2CN(C(=O)Nc3nc(-c4ccc(F)cc4F)ccc3N)C2)cn1", "measured-target": "HDAC2 (Homo sapiens)", "relation-operator": "=", "pIC50": 5.81}
{"compound": "Cc1cnc(CC2CN(C(=O)Nc3nc(-c4ccc(F)cc4F)ccc3N)C2)cn1", "measured-target": "HDAC2 (Homo sapiens)", "relation-operator": "=", "pIC50": 6.16}

---

Listing of recorded IC50 by entry.
Molecular target: Full length Human HDAC2 (Homo sapiens)
Construct: Full length Human HDAC2; FLAG (C); host or cells: baculovirus expression system
Assay: HDAC2 enzymatic assay (deacetylation of FAM-labeled peptide substrate, microfluidic electrophoresis)
Type: biochemical
Conditions: recombinant enzymatic assay, Table 2, class symbols

{"compound": "Nc1ccc(-c2ccc(F)cc2F)nc1NC(=O)N1CC(Cc2ccncc2)C1", "IC50": "> 2000 nM"}
{"compound": "Nc1ccc(-c2ccc(F)cc2)nc1NC(=O)N1CC(Cn2cccn2)C1", "IC50": "1000 to 2000 nM"}
{"compound": "Nc1ccc(-c2ccc(F)cc2F)nc1NC(=O)N1CC(Cc2nnc(C(F)(F)F)s2)C1", "IC50": "1000 to 2000 nM"}
{"compound": "Cc1nccnc1CC1CN(C(=O)Nc2nc(-c3ccc(F)cc3F)ccc2N)C1", "IC50": "1000 to 2000 nM"}
{"compound": "COCc1cnc(CC2CN(C(=O)Nc3nc(-c4ccc(F)cc4)ccc3N)C2)nc1", "IC50": "500 to 1000 nM"}
{"compound": "Cc1cccc(CC2CN(C(=O)Nc3nc(-c4ccc(F)cc4)ccc3N)C2)n1", "IC50": "1000 to 2000 nM"}
{"compound": "Cc1cc(CC2CN(C(=O)Nc3nc(-c4ccc(F)cc4F)ccc3N)C2)ncn1", "IC50": "1000 to 2000 nM"}
{"compound": "Cc1ccnc(CC2CN(C(=O)Nc3nc(-c4ccc(F)cc4F)ccc3N)C2)n1", "IC50": "500 to 1000 nM"}
{"compound": "Nc1ccc(-c2ccc(F)cc2F)nc1NC(=O)N1CC(Cc2ncco2)C1", "IC50": "500 to 1000 nM"}
{"compound": "Nc1ccc(-c2ccc(F)cc2F)nc1NC(=O)N1CC(Oc2ncccn2)C1", "IC50": "500 to 1000 nM"}
{"compound": "Nc1ccc(-c2ccc(F)cc2F)nc1NC(=O)N1CC(Cc2ncccn2)C1", "IC50": "500 to 1000 nM"}
{"compound": "Cc1nccc(CC2CN(C(=O)Nc3nc(-c4ccc(F)cc4F)ccc3N)C2)n1", "IC50": "> 2000 nM"}
{"compound": "Cn1ccnc1CC1CN(C(=O)Nc2nc(-c3ccc(F)cc3)ccc2N)C1", "IC50": "> 2000 nM"}
{"compound": "Nc1ccc(-c2ccc(F)cc2F)nc1NC(=O)N1CC(C(F)(F)c2ncc(F)cn2)C1", "IC50": "500 to 1000 nM"}
{"compound": "Nc1ccc(-c2cccs2)nc1NC(=O)N1CC(Cc2ncccn2)C1", "IC50": "1000 to 2000 nM"}
{"compound": "Nc1ccc(-c2ccc(F)s2)nc1NC(=O)N1CC(Cc2ncc(F)cn2)C1", "IC50": "500 to 1000 nM"}
{"compound": "Nc1ccc(-c2ccc(F)cc2)nc1NC(=O)N1CC(Cc2ncc(F)cn2)C1", "IC50": "< 500 nM"}
{"compound": "Nc1ccc(-c2ccc(F)cc2F)nc1NC(=O)N1CC(C(F)c2ncccn2)C1 (stereo not drawn)", "IC50": "1000 to 2000 nM"}
